TARGET_OR_SYSTEM: Muscarinic acetylcholine receptor (Rattus norvegicus) (UniProt P08482+P08483+P08485+P08911+P10980)
condition met if K app is below 2 µM. condition not met if not; exact matches included in condition not met.

{"MOLECULE": "Cc1cc(C2CN3CCC2CC3)on1 (stereo not drawn)", "LABEL_VALUE": "condition met"}
{"MOLECULE": "Cc1noc(C2=CN3CCC2CC3)n1", "LABEL_VALUE": "condition not met"}
{"MOLECULE": "c1coc(C2CN3CCC2CC3)n1 (stereo not drawn)", "LABEL_VALUE": "condition not met"}
{"MOLECULE": "COC(=O)C1CN2CCC1CC2 (stereo not drawn)", "LABEL_VALUE": "condition not met"}
{"MOLECULE": "NC(=O)c1noc(C2CN3CCC2CC3)n1 (stereo not drawn)", "LABEL_VALUE": "condition not met"}

Hello, I'm reviewing records and need to know if K app of Cc1nnc(C2CN3CCC2CC3)o1 (stereo not drawn) is below 2 µM. Could you check?
condition not met

Hello, I'm reviewing records and need to know if K app of OC(c1ccccc1)(c1ccccc1)c1noc(C2CN3CCC2CC3)n1 (stereo not drawn) is below 2 µM. Could you check?
condition met

Hello, I'm reviewing records and need to know if K app of Cc1coc(C2CN3CCC2CC3)c1 (stereo not drawn) is below 2 µM. Could you check?
condition met

Hello, I'm reviewing records and need to know if K app of Cc1noc(C2=CCCN(C)C2)n1 is below 2 µM. Could you check?
condition met

Hello, I'm reviewing records and need to know if K app of N#Cc1noc(C2CN3CCC2CC3)n1 (stereo not drawn) is below 2 µM. Could you check?
condition not met

Hello, I'm reviewing records and need to know if K app of COc1noc(C2CN3CCC2CC3)n1 (stereo not drawn) is below 2 µM. Could you check?
condition met

# credit: ChEMBL document CHEMBL1124736
